Each recorded value in this set is attributed to ChEMBL document CHEMBL5257098.

- tested-on: G-protein coupled receptor 35 (Homo sapiens)
- procedure-text: Agonist activity at GPR-35 in human HT-29 cells incubated for 1 hr by DMR assay
- Type: cell-based
assay-endpoint: pEC50
Give bare numbers, as −log10 of the molar value.

Query: pEC50 for O=c1oc2c([N+](=O)[O-])c(O)c(Br)cc2cc1-c1nnn[nH]1 ?
Reply: 8.22

* * *

- tested-on: G-protein coupled receptor 35 (Homo sapiens, UniProt Q9HC97)
- Sequence (Q9HC97 whole entry, the tested form may be a part): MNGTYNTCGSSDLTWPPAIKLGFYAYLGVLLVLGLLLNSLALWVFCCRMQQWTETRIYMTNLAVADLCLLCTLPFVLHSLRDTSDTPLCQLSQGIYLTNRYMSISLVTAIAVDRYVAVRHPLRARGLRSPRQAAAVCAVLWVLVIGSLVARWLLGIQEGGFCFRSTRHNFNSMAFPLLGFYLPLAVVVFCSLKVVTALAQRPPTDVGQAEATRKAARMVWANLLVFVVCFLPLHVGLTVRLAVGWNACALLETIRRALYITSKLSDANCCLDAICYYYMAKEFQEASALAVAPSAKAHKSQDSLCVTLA
- procedure-text: Competitive binding affinity to Nluc-fused human GPR35 expressed in CHO-K1 cells assessed as inhibition constant using furimazine as substrate incubated for 30 mins followed by substrate addition by in presence of 10-(4-(2-(4-(4-((2,8-dicarboxy-6-hydroxy-10-methylpyrido[3,2-g]quinolin-4-yl)oxy)butyl)-1H-1,2,3-triazol-1-yl)ethoxy)phenyl)-5,5-difluoro-2,7,9-trimethyl-5H-imidazo[1,2-c]pyrrolo[2,1-f][ …
For each record, write down the corresponding Ki.
One number for each entry, in nM.

Before answering, review these 5 worked examples.
compound	Ki (nM)
O=C(O)c1cc2cc(Br)c(O)c(Br)c2oc1=O	352
O=C(O)c1cc(=O)c2c(OCC(O)COc3cccc4oc(C(=O)O)cc(=O)c34)cccc2o1 [CROMOLYN]	2970
COC(=O)c1cnn(-c2ccc(F)cc2F)c1/C=N/NC(=S)NC(C)(C)C	236
O=c1oc2c([N+](=O)[O-])c(O)c(Br)cc2cc1-c1nnn[nH]1	51
Cc1c2[nH]c(C(=O)O)cc(=O)c2cc2c(=O)cc(C(=O)O)[nH]c12	6

Parameters: items (list). Returns: Ki for each item.
1. COc1ccc(C(=O)Nc2cc(Br)ccc2-c2nnn[nH]2)cc1
2. O=C(O)c1cc(C(=O)O)c2c(n1)C(=O)C(=O)c1cc(C(=O)O)[nH]c1-2 [PYRROLOQUINOLINE QUINONE]

Reply:
1. 10
2. 332

* * *

- tested-on: UniProt Q9HC97
- procedure-text: Agonist activity at GPR-35 in human HT-29 cells assessed as desensitization of zaprinast induced DMR response incubated for 1 hr followed by zaprinast stimulation
- Format: cell-based
Assign pIC50 to each entry below.
One number for each entry, as −log10 of the molar value.

Below, 3 molecules whose answers are already recorded.
1) CC1=CC(C)=[N+]2C1=C(c1ccc(OCCn3cc(CCCOc4cc(C(=O)O)nc5c(C)c6nc(C(=O)O)cc(O)c6cc45)nn3)cc1)c1nc(C)cn1[B-]2(F)F 8.02
2) CC1=CC(C)=[N+]2C1=C(c1ccc(OCCn3cc(CCCCOc4cc(C(=O)O)nc5c(C)c6nc(C(=O)O)cc(O)c6cc45)nn3)cc1)c1nc(C)cn1[B-]2(F)F 8.03
3) CC1=CC(C)=[N+]2C1=C(c1ccc(OCCn3cc(CCOCCOc4cc(C(=O)O)nc5c(C)c6nc(C(=O)O)cc(O)c6cc45)nn3)cc1)c1nc(C)cn1[B-]2(F)F 8.11

Query: What pIC50 value was documented for this molecule, CC1=CC(C)=[N+]2C1=C(c1ccc(OCCn3cc(CCCCCOc4cc(C(=O)O)nc5c(C)c6nc(C(=O)O)cc(O)c6cc45)nn3)cc1)c1nc(C)cn1[B-]2(F)F ?
Reply: 8.25

* * *

- tested-on: G-protein coupled receptor 35 (Homo sapiens)
- procedure-text: Binding affinity to Nluc-fused human GPR35 expressed in CHO-K1 cells using furimazine as substrate incubated for 30 mins in presence of zaprinast followed by substrate addition by […] equilibrium binding assay
- Assay type: cell-based
assay-endpoint: Kd (nM)
Numbers only, in nM.

Worked cases, Kd given:
1) CC1=CC(C)=[N+]2C1=C(c1ccc(OCCn3cc(CCCCOc4cc(C(=O)O)nc5c(C)c6nc(C(=O)O)cc(O)c6cc45)nn3)cc1)c1nc(C)cn1[B-]2(F)F 3.9
2) CC1=CC(C)=[N+]2C1=C(c1ccc(OCCn3cc(CCCOc4cc(C(=O)O)nc5c(C)c6nc(C(=O)O)cc(O)c6cc45)nn3)cc1)c1nc(C)cn1[B-]2(F)F 7.4
3) CC1=CC(C)=[N+]2C1=C(c1ccc(OCCn3cc(CCOCCOc4cc(C(=O)O)nc5c(C)c6nc(C(=O)O)cc(O)c6cc45)nn3)cc1)c1nc(C)cn1[B-]2(F)F 17.9

We next turn to a different compound, shown below.
Query: Quick one: Kd of CC1=CC(C)=[N+]2C1=C(c1ccc(OCCn3cc(CCCCCOc4cc(C(=O)O)nc5c(C)c6nc(C(=O)O)cc(O)c6cc45)nn3)cc1)c1nc(C)cn1[B-]2(F)F ?
Reply: 8.3
